System: SMN2 minigene mRNA (SMN2-A minigene) in HEK293H cells
ASSAY PROTOCOL: SMN2 minigene mRNA splicing RT-qPCR assay in cultured cells
Format: cell-based, human
REPORTED CONDITIONS: Homo sapiens, HEK293-H; concentration increasing full length SMN2 mRNA 1.5-fold relative to vehicle-treated cells; HEK293H cells with SMN2-A minigene, 24 hours, 7-point concentration data; read-out: EC1.5x for production of full length SMN2 mRNA
Protocol: The reverse transcription-quantitative PCR-based (RT-qPCR) assay is used to quantify the level of the full length SMN2 minigene mRNA containing SMN2 exon 7 in a HEK293H cell line stably transfected with said minigene and treated with a test compound. Protocol. […] The increase of SMN2 minigene FL mRNA relative to that in cells treated with vehicle control is determined from real-time PCR data using a modified ΔΔCt method (as described in Livak and Schmittgen, Methods, 2001, 25:402-8). […]
Hi there, I'd appreciate the recorded EC (1.5-fold increase) for every entry that follows.

Input: Quick check: EC (1.5-fold increase) of CCCNC1CCN(c2cc(C)c3nc(-c4cc5c(C)nc(C)cn5n4)cc(=O)n3c2)CC1 ?
Output: < 0.1 µM

Input: Look up EC (1.5-fold increase) for this compound: Cc1nc2ccc(-c3cc(=O)n4cc(N5CCN(C)[C@H](C)C5)ccc4n3)cc2o1
Output: < 0.1 µM

Input: State the recorded EC (1.5-fold increase) for this entry: Cc1nc2ccc(-c3cc(=O)n4cc(N5CCC(N(C)C)CC5)ccc4n3)cc2s1
Output: < 0.1 µM

Input: What value of measured EC (1.5-fold increase) is listed for Cc1nc2ccc(-c3cc(=O)n4cc(N5CCCNCC5)ccc4n3)cc2s1 ?
Output: 1 to 3 µM

Input: For the compound COc1ccc(-c2cc(=O)n3cc(N4CCNCC4)ccc3n2)cc1OC(F)F , what EC (1.5-fold increase) is on record?
Output: 0.3 to 1 µM

Input: // returns reported EC (1.5-fold increase) for input Cc1cn2nc(-c3cc(=O)n4cc(C5CCN(C6CC6)CC5)ccc4n3)cc2c(C)n1
Output: < 0.1 µM

Input: What value of EC (1.5-fold increase) has been reported for the following compound? CN(C)c1ccc(-c2cc(=O)n3cc(C4=CCNCC4)ccc3n2)cn1
Output: 0.3 to 1 µM

Input: I am curious: what EC (1.5-fold increase) value has been reported for COc1ccc(-c2cc(=O)n3cc(N4CCNCC4)ccc3n2)cc1[N+](=O)[O-] ?
Output: < 0.1 µM

Input: Consider the compound shown here: Cc1cn2cc(-c3cc(=O)n4cc(C5CCN(C(C)C)CC5)ccc4n3)ccc2n1 What is its recorded EC (1.5-fold increase)?
Output: 0.1 to 0.3 µM

Input: Value lookup for EC (1.5-fold increase); key = COc1cc(-c2cc(=O)n3cc(N4CCN[C@@H](C)C4)ccc3n2)cc(F)c1F
Output: 0.3 to 1 µM

Input: What value of EC (1.5-fold increase) has been recorded for this entry: Cc1cn2nc(-c3cc(=O)n4cc(N5CC(N6CCCC6)C5)ccc4n3)cc2c(C)n1
Output: 0.1 to 0.3 µM

Input: Any idea what its EC (1.5-fold increase) is? The compound is COc1cc(F)c(-c2cc(=O)n3cc(N4CCN[C@@H](C)C4)ccc3n2)cc1OC
Output: 3 to 30 µM

Input: Look up EC (1.5-fold increase): Cn1cc2cc(-c3cc(=O)n4cc(N5CCN(CCO)CC5)ncc4n3)ccc2n1
Output: 0.3 to 1 µM

Input: Look at this compound and give its reported EC (1.5-fold increase). C[C@@H]1CN(c2ccc3nc(-c4ccc5c(cnn5C)c4)cc(=O)n3c2)CCN1
Output: 0.1 to 0.3 µM

Input: Which value of EC (1.5-fold increase) has been reported for CCc1nc(C)cn2nc(-c3cc(=O)n4cc(N5CCN(CCF)CC5)ccc4n3)cc12 in the records?
Output: 0.3 to 1 µM

Input: Would you kindly share the measured EC (1.5-fold increase) for Cc1cn2nc(-c3cc(=O)n4cc(N5CCN[C@@H](C)C5)ccc4n3)cc2c(C)n1 ?
Output: < 0.1 µM

Input: For the compound Cc1cn2cc(-c3cc(=O)n4cc(N5CCCNCC5)ccc4n3)ccc2n1 , what EC (1.5-fold increase) is on record?
Output: 0.1 to 0.3 µM

Input: Give the measured EC (1.5-fold increase) of Cc1cn2cc(-c3cc(=O)n4cc(N5CCN[C@@H](C)C5)ccc4n3)cc(Cl)c2n1 .
Output: < 0.1 µM

Input: Please report the recorded EC (1.5-fold increase) for C[C@@H]1CN(c2ccc3nc(-c4ccc5c(c4)OCCO5)cc(=O)n3c2)C[C@H](C)N1 .
Output: 1 to 3 µM

Input: EC (1.5-fold increase) for CCCN1CCN(c2ccc3nc(-c4cc(F)c5nc(C)oc5c4)cc(=O)n3c2)CC1 ?
Output: < 0.1 µM

Input: Quick one: EC (1.5-fold increase) for Cc1cn2cc(-c3cc(=O)n4cc(C5CCN(C6CCC6)CC5)ncc4n3)ccc2n1 ?
Output: 0.3 to 1 µM

Input: Param item = Cc1nc2ccc(-c3cc(=O)n4cc(N5C[C@@H](C)N[C@@H](C)C5)ccc4n3)cc2o1 ; retrieve measured EC (1.5-fold increase).
Output: < 0.1 µM

Input: Quick check: EC (1.5-fold increase) of COc1ccc(-c2cc(=O)n3cc(N4CCNCC4)ccc3n2)cn1 ?
Output: 1 to 3 µM

Input: Recorded EC (1.5-fold increase) for Cc1nc2ccc(-c3cc(=O)n4nc(C5CCN(CCO)CC5)ccc4n3)cc2o1 , please?
Output: 0.1 to 0.3 µM

Input: Entry under review: Cc1cn2nc(-c3cc(=O)n4cc(N5CCN(C)[C@H](C)C5)cc(C)c4n3)cc2c(C)n1 . Reported EC (1.5-fold increase)?
Output: < 0.1 µM

Input: For the compound shown here, Cc1cn2nc(-c3cc(=O)n4cc(C5=CCN(C)CC5)ccc4n3)cc2c(C)n1 , give the reported EC (1.5-fold increase).
Output: < 0.1 µM

Input: Requested field: EC (1.5-fold increase). Item: Cc1cn2nc(-c3cc(=O)n4cc(N5C[C@@H]6C[C@H]5CN6)ccc4n3)cc2c(C)n1
Output: 0.3 to 1 µM

Input: Query (compound): Cc1cn2nc(-c3cc(=O)n4cc(N5CCN(C)CC5)ccc4n3)cc2c(C)n1 ; field requested: EC (1.5-fold increase)
Output: < 0.1 µM

Input: Consider the compound shown here: O=c1cc(-c2ccc3nccn3c2)nc2ccc(N3CCNCC3)cn12 What is its recorded EC (1.5-fold increase)?
Output: 0.1 to 0.3 µM

Input: Bench note: what EC (1.5-fold increase) did O=c1cc(-c2cccc([N+](=O)[O-])c2)nc2ccc(N3CCNCC3)cn12 show?
Output: 0.1 to 0.3 µM

Input: Any idea what EC (1.5-fold increase) was measured for CCc1cc(-c2cc(=O)n3cc(N4CCN(CCO)CC4)ccc3n2)cn2cc(C)nc12 ?
Output: < 0.1 µM

Input: Value lookup for EC (1.5-fold increase); key = Cc1cn2cc(-c3cc(=O)n4cc(N5CCN[C@@H](C)C5)ccc4n3)cc(C3CC3)c2n1
Output: < 0.1 µM

Input: // returns reported EC (1.5-fold increase) for input Cc1cn2nc(-c3cc(=O)n4cc(C5CCN(C6CCC6)CC5)ccc4n3)cc2c(C)n1
Output: < 0.1 µM

----------
ASSAY ENDPOINT: melting point

Input: What value of melting point has been recorded for this entry: COc1c(F)cc(-c2cc(=O)n3cc(N4CCNCC4)ccc3n2)cc1F
Output: 167 to 169 °C

Input: Could you tell me which melting point is on file for COc1ccc(-c2cc(=O)n3cc(C4CCCNC4)ccc3n2)cc1OC (stereo not shown) ?
Output: 126 to 129 °C

Input: Which measured melting point value corresponds to COc1ccc(-c2cc(=O)n3cc(N4CCNC(C)(C)C4)ccc3n2)cc1OC ?
Output: 138 to 140 °C

Input: Which melting point is reported for this compound? COc1ccc(-c2cc(=O)n3cc(N4C[C@H]5CCCN[C@H]5C4)ccc3n2)cc1F
Output: 194 to 201 °C

Input: Quick check: melting point of COc1ccc(-c2cc(=O)n3cc(C4=CCN(C(C)C)CC4)cc(C)c3n2)cc1OC ?
Output: 153 to 163 °C

Input: Looking for the measured melting point of Cc1nc2ccc(-c3cc(=O)n4cc(C5=CCN(C)CC5)ncc4n3)cc2o1 , can you help?
Output: 240 to 242 °C

Input: Param item = O=c1cc(-c2ccc3c(c2)OCCO3)nc2ccc(N3CCCNCC3)cn12 ; retrieve measured melting point.
Output: 180 to 182 °C

Input: Report melting point for Cc1nc2ccc(-c3cc(=O)n4cc(N5CCN(C)[C@@H](C)C5)ccc4n3)cc2o1 please.
Output: 205 to 209 °C

Input: Which value of melting point has been reported for Cc1cn2nc(-c3cc(=O)n4cc(N5CCC6(CCNC6)C5)ccc4n3)cc2c(C)n1 (stereo not shown) in the records?
Output: 208 to 210 °C

Input: For the compound C[C@H]1CN(c2ccc3nc(-c4ccc(O)c(OC(F)(F)F)c4)cc(=O)n3c2)CCN1 , what melting point is on record?
Output: 152 to 155 °C

Input: What value of melting point has been recorded for this entry: Cc1cn2nc(-c3cc(=O)n4cc(C5CCN(CCO)CC5)ccc4n3)cc2c(C)n1
Output: 228 to 230 °C

Input: // returns reported melting point for input Cc1cn2cc(-c3cc(=O)n4cc(C5=CCN(CCO)CC5)ccc4n3)ccc2n1
Output: 248 to 250 °C

Input: Look at this compound and give its reported melting point. CN1CCN(c2ccc3nc(-c4ccc5c(cnn5C)c4)cc(=O)n3c2)CC1
Output: 194 to 196 °C

Input: If you can, please state the reported melting point value of Cc1nc2ccc(-c3cc(=O)n4cc(N5CCN[C@@H](C)C5)ccc4c3)cc2o1 .
Output: 115 to 117 °C

Input: // lookup melting point for CN(C)C1CCN(c2ccc3nc(-c4ccc5c(cnn5C)c4)cc(=O)n3c2)CC1
Output: 209 to 212 °C

Input: Please report the recorded melting point for CCN(CC)C1CN(c2ccc3nc(-c4cc5c(C)nc(C)cn5n4)cc(=O)n3c2)C1 .
Output: 231 to 233 °C
